- Tested on: A549 cells
- Assay explanation: WST-1 cell viability assay, A549
- Format: cell-based
- Protocol conditions: Homo sapiens, A549, 48 h, read-out: IC50 of viability
Observable: IC50 (µM)
The response must be a number in µM with no trailing unit.

Exam item: Fill in the blank: the reported IC50 of C[C@@H](CN1CCC(n2c(=O)[nH]c3cc(Cl)ccc32)CC1)NC(=O)c1ccc2ccccc2c1 [VU0155069, reference compound] is ____.
Marked response: 18.5
